target: CNOT4 CCR4-NOT transcription complex subunit 4 (Homo sapiens, UniProt O95628); construct: isoTOP-ABPP experiments performed in cell lysates (in vitro); endogenous in cells; host or cells: MDA-MB-231 soluble lysate; test: competitive isoTOP-ABPP; type: binding; conditions: 50 uM, in vitro, sol, 231
Sequence (O95628 whole entry, the tested form may be a part, one chain of several): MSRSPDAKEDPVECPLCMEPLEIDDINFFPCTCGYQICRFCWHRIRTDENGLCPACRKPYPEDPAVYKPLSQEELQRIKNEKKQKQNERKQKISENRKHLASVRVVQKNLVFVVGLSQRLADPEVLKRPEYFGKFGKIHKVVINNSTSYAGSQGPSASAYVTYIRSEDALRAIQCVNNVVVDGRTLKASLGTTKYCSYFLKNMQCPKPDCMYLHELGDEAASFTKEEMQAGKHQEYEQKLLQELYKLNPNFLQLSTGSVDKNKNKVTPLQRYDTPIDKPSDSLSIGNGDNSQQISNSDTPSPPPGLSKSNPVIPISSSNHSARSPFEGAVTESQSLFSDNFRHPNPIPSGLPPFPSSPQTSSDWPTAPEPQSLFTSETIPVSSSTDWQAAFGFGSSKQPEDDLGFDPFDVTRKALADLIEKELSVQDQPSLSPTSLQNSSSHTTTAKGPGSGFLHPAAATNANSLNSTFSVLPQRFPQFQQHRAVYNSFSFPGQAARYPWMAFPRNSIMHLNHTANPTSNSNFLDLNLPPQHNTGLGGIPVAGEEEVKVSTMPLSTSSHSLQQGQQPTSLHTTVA
Quantity: isoTOP-ABPP ratio (R) at liganded lysine O95628_K134
Response field accepts a number only; no unit should be typed.

Input: CNOT4 CCR4-NOT transcription complex subunit 4 (Homo sapiens, UniProt O95628) / isoTOP-ABPP ratio (R) at liganded lysine O95628_K134 / CC(=O)Oc1ccc([N+](=O)[O-])cc1[N+](=O)[O-] [fragment 43, 2,4-Dinitrophenyl acetate] : value?
Output: 1.3

Input: CNOT4 CCR4-NOT transcription complex subunit 4 (Homo sapiens, UniProt O95628) / isoTOP-ABPP ratio (R) at liganded lysine O95628_K134 / O=C(Oc1ccc([N+](=O)[O-])cc1[N+](=O)[O-])C(c1ccccc1)(c1ccccc1)c1ccccc1 [fragment 42, 2,4-Dinitrophenyl 2,2,2-triphenylacetate] : value?
Output: 1.0

Input: CNOT4 CCR4-NOT transcription complex subunit 4 (Homo sapiens, UniProt O95628) / isoTOP-ABPP ratio (R) at liganded lysine O95628_K134 / O=C(Oc1ccc([N+](=O)[O-])cc1[N+](=O)[O-])c1ccc2ccccc2n1 [fragment 35] : value?
Output: 1.3

Input: CNOT4 CCR4-NOT transcription complex subunit 4 (Homo sapiens, UniProt O95628) / isoTOP-ABPP ratio (R) at liganded lysine O95628_K134 / O=C(Oc1ccc([N+](=O)[O-])cc1[N+](=O)[O-])c1ccccc1Nc1cccc(C(F)(F)F)c1 [fragment 40] : value?
Output: 1.1

Input: CNOT4 CCR4-NOT transcription complex subunit 4 (Homo sapiens, UniProt O95628) / isoTOP-ABPP ratio (R) at liganded lysine O95628_K134 / O=C(Oc1ccc([N+](=O)[O-])cc1[N+](=O)[O-])C1CCN(C(=O)OCc2ccccc2)CC1 [fragment 34] : value?
Output: 1.1

Input: CNOT4 CCR4-NOT transcription complex subunit 4 (Homo sapiens, UniProt O95628) / isoTOP-ABPP ratio (R) at liganded lysine O95628_K134 / O=C(CC12CC3CC(CC(C3)C1)C2)Oc1ccc([N+](=O)[O-])cc1[N+](=O)[O-] [fragment 38] : value?
Output: 1.2

Input: CNOT4 CCR4-NOT transcription complex subunit 4 (Homo sapiens, UniProt O95628) / isoTOP-ABPP ratio (R) at liganded lysine O95628_K134 / CC(C)(C)OC(=O)NCCCC(=O)Oc1ccc([N+](=O)[O-])cc1[N+](=O)[O-] [fragment 41] : value?
Output: 1.3

Input: CNOT4 CCR4-NOT transcription complex subunit 4 (Homo sapiens, UniProt O95628) / isoTOP-ABPP ratio (R) at liganded lysine O95628_K134 / O=C(Oc1ccc([N+](=O)[O-])cc1[N+](=O)[O-])c1ccc(-c2ccccc2)cc1 [fragment 37] : value?
Output: 1.0

Input: CNOT4 CCR4-NOT transcription complex subunit 4 (Homo sapiens, UniProt O95628) / isoTOP-ABPP ratio (R) at liganded lysine O95628_K134 / O=C(Oc1ccc([N+](=O)[O-])cc1[N+](=O)[O-])c1ccc(Oc2ccccc2)cc1 [fragment 39, 2,4-Dinitrophenyl 4-phenoxybenzoate] : value?
Output: 1.0
